Tested on: lipase
Experiment: Lipase activity retention in detergent use solution (4000 ppm, 5 GPG water; p-nitrophenyl valerate, TRIS buffer pH 8.0)
Assay type: biochemical
Conditions: base formula, phosphonate at 0.1% elemental phosphorus, at 120º F. or at room temperature (as titled), time 120 min
Experimental: The enzyme […] collected up to 4 hours, after a use solution was generated from the detergent composition. During the tests, the samples at different time points were collected and immediately frozen in an acetone/dry ice bath and stored in −80° C. before the activity of the enzyme was evaluated. […] Enzyme activity under presoak or manual warewash conditions was traced quantitatively using a standard protease assay. […]
Provide the reported Relative Lipase Enzyme Activity of each item.
Return type: number; implicit unit %.

Entry O=C(O)CCC(CC(=O)O)(C(=O)O)P(=O)(O)O (stereo not shown) [PBTC, Phosphonebutane tricarboxylic acid] , tested on lipase, has a reported Relative Lipase Enzyme Activity of 12.52

Entry NCP(=O)(O)O [AMPA, Aminomethyl phosphonic acid] , tested on lipase, has a reported Relative Lipase Enzyme Activity of 28.67

Entry CC(O)(P(=O)(O)O)P(=O)(O)O [HEDP] , tested on lipase, has a reported Relative Lipase Enzyme Activity of 13.04

Entry O=P(O)(O)CN(CP(=O)(O)O)CP(=O)(O)O [ATMP, Aminotri (methylene phosphonic acid)] , tested on lipase, has a reported Relative Lipase Enzyme Activity of 25.91
